Reference for the values: ChEMBL document CHEMBL5154772

assay: Metabolic stability in human liver microsomes assessed as parent compound remaining incubated for 45 mins in absence of NADPH by HPLC-MS/MS analysis; format: ADME, Microsome; settings: read-out: Stability
property: remaining at 0.75 h

Measured remaining at 0.75 h, COc1ccc(-c2cc(=O)c3c(O)cc(OP(=O)([O-])[O-])c(-c4cc(-c5cc(=O)c6c(O)cc(OP(=O)([O-])[O-])cc6o5)ccc4OC)c3o2)cc1.[Na+].[Na+].[Na+].[Na+] : 64.7%

----------
test: MRT(0 to t) in C57BL/6J mouse at 0.711 mg/kg, iv administered as single dose measured up to 24 hrs; type: ADME, organism-based; details: in vivo
property: MRT last at 24 h (min)
One number for each entry, in min.

Measured MRT last at 24 h, COc1ccc(-c2cc(=O)c3c(O)cc(OP(=O)([O-])[O-])c(-c4cc(-c5cc(=O)c6c(O)cc(OP(=O)([O-])[O-])cc6o5)ccc4OC)c3o2)cc1.[Na+].[Na+].[Na+].[Na+] : 54

----------
assay: Tmax in Beagle dog at 26.76 mg/kg, iv administered as single dose measured up to 24 hrs; type: ADME, organism-based, Canis lupus familiaris; conditions: in vivo
property: Tmax (min)
Answers are plain numbers, in min.

Measured Tmax, COc1ccc(-c2cc(=O)c3c(O)cc(OP(=O)([O-])[O-])c(-c4cc(-c5cc(=O)c6c(O)cc(OP(=O)([O-])[O-])cc6o5)ccc4OC)c3o2)cc1.[Na+].[Na+].[Na+].[Na+] : 5

----------
assay: Cmax in Beagle dog at 26.76 mg/kg, iv administered as single dose measured up to 24 hrs; type: ADME, organism-based, Canis lupus familiaris; design: time < 24 hrs, dose 26.76 mg/kg, route iv; settings: in vivo
property: Cmax

Measured Cmax, COc1ccc(-c2cc(=O)c3c(O)cc(OP(=O)([O-])[O-])c(-c4cc(-c5cc(=O)c6c(O)cc(OP(=O)([O-])[O-])cc6o5)ccc4OC)c3o2)cc1.[Na+].[Na+].[Na+].[Na+] : 272 µg/mL

----------
assay: Plasma protein binding in mouse assessed as unbound fraction at 2 uM by rapid equilibrium dialysis based LC-MS/MS analysis; format: ADME, cell-free
property: fraction unbound at 2 µM
One number for each entry.

Measured fraction unbound at 2 µM, COc1ccc(-c2cc(=O)c3c(O)cc(OP(=O)([O-])[O-])c(-c4cc(-c5cc(=O)c6c(O)cc(OP(=O)([O-])[O-])cc6o5)ccc4OC)c3o2)cc1.[Na+].[Na+].[Na+].[Na+] : 0.02

----------
assay: Stability in mouse plasma assessed as compound remaining incubated up to 2 hrs by HPLC-MS/MS analysis; type: ADME, cell-free; conditions: read-out: Stability
property: remaining at 2 h (%)
Give bare numbers, in %.

Measured remaining at 2 h, COc1ccc(-c2cc(=O)c3c(O)cc(OP(=O)([O-])[O-])c(-c4cc(-c5cc(=O)c6c(O)cc(OP(=O)([O-])[O-])cc6o5)ccc4OC)c3o2)cc1.[Na+].[Na+].[Na+].[Na+] : 98.1

----------
assay: Total clearance in C57BL/6J mouse at 9.103 mg/kg, ip administered as single dose measured up to 24 hrs; assay type: ADME, organism-based; settings: in vivo
property: CL/F (mL/min/kg)
Give bare numbers, in mL/min/kg.

Measured CL/F, COc1ccc(-c2cc(=O)c3c(O)cc(OP(=O)([O-])[O-])c(-c4cc(-c5cc(=O)c6c(O)cc(OP(=O)([O-])[O-])cc6o5)ccc4OC)c3o2)cc1.[Na+].[Na+].[Na+].[Na+] : 154
